- System: Wolbachia pipientis
- experiment.description: Anti-Wolbachia Cell-Based Screen
- Type: functional
- Set-up: scale not given: in the data most compounds retested in dose-response had high values
- cond: 5 µM
The campaign covered roughly 48,000 compounds. About 13,000 (27%) showed an effect of 50% or more. Some of the results follow.
// reported Percent Effect per item
Write the value in % as a bare number.

Exam item: Find the recorded Percent Effect belonging to `CCN(CCC#N)Cn1ncc2cn(-c3ccccc3)nc2c1=O` and report it.
Marked response: 15.78

Exam item: Find the recorded Percent Effect belonging to COC1CCCN(C(=O)c2sc(CC(C)C)nc2C)C1 (centres undefined) and report it.
Marked response: -1.564

Exam item: Find the recorded Percent Effect belonging to CN(C)C(C(=O)NCCn1cccc1)c1cccc(F)c1 (centres undefined) and report it.
Marked response: 1.101

// next entry
Exam item: Find the recorded Percent Effect belonging to `COC(=O)c1cccn1C1CCN(Cc2cccc(C(N)=O)c2)CC1` and report it.
Marked response: 132.6
